Assay: Solubility in stimulated gastric fluid at pH 2 umol after 3 days
Assay type: physicochemical
Settings: simulated gastric fluid
assay_metric: solubility at 72 h

[ask] Return solubility at 72 h (reported value) for this compound: `CN1CCC(Oc2ccc(-c3nc4cc(C(N)=O)ccc4[nH]3)cc2)CC1`
[reply] > 400 µM

[ask] Return solubility at 72 h (reported value) for this compound: `NC(=O)c1ccc2[nH]c(-c3ccc(OCCCN4CCCCC4)cc3)nc2c1`
[reply] > 400 µM

[ask] Return solubility at 72 h (reported value) for this compound: NC(=O)c1ccc2[nH]c(-c3ccc(OCCC4CCCCN4Cc4ccccc4)cc3)nc2c1 (centres undefined)
[reply] > 400 µM

[ask] Return solubility at 72 h (reported value) for this compound: NC(=O)c1ccc2[nH]c(-c3ccc(OC4CCCNC4)cc3)nc2c1 (centres undefined)
[reply] > 400 µM

[ask] Return solubility at 72 h (reported value) for this compound: CC(=O)N1CCCCC1CCOc1ccc(-c2nc3cc(C(N)=O)ccc3[nH]2)cc1 (centres undefined)
[reply] > 400 µM

---

Assay: Solubility in stimulated gastric fluid at pH 2 umol after 3 days
Type: physicochemical
Conditions: simulated gastric fluid
assay_metric: solubility at 72 h

[ask] Return solubility at 72 h (reported value) for this molecule: NC(=O)c1ccc2[nH]c(-c3ccc(OCC4CCCN(Cc5ccccc5)C4)cc3)nc2c1 (configuration not stated)
[reply] > 400 µM

[ask] Return solubility at 72 h (reported value) for this molecule: NC(=O)c1ccc2[nH]c(-c3ccc(OC4CCC(O)C4)cc3)nc2c1 (configuration not stated)
[reply] > 400 µM

[ask] Return solubility at 72 h (reported value) for this molecule: `CN(C)CCCOc1ccc(-c2nc3cc(C(N)=O)ccc3[nH]2)cc1`
[reply] > 400 µM

[ask] Return solubility at 72 h (reported value) for this molecule: NC(=O)c1ccc2[nH]c(-c3ccc(OCCC4CCCCN4C(=O)c4ccccc4)cc3)nc2c1 (configuration not stated)
[reply] 28 µM

[ask] Return solubility at 72 h (reported value) for this molecule: `NC(=O)c1ccc2[nH]c(-c3ccc(OCCCO)cc3)nc2c1`
[reply] 185 µM

[ask] Return solubility at 72 h (reported value) for this molecule: NC(=O)c1ccc2[nH]c(-c3ccc(OCCC4CCCCN4Cc4ccc(Cl)c(Cl)c4)cc3)nc2c1 (configuration not stated)
[reply] 39 µM

[ask] Return solubility at 72 h (reported value) for this molecule: `CC(=O)N1CCC(CCOc2ccc(-c3nc4cc(C(N)=O)ccc4[nH]3)cc2)CC1`
[reply] 87 µM

---

Assay: Solubility in stimulated gastric fluid at pH 2 umol after 3 days
Type: physicochemical
Details: simulated gastric fluid
Entries and their measured solubility at 72 h follow.

compound=NC(=O)c1ccc2[nH]c(-c3ccc(OCC4CCN(Cc5ccccc5)CC4)cc3)nc2c1 obs_value="> 400 µM"
compound="NC(=O)c1ccc2[nH]c(-c3ccc(OCCC4CCCCN4Cc4ccc(Cl)cc4)cc3)nc2c1 (centres undefined)" obs_value="> 400 µM"
compound=NC(=O)c1ccc2[nH]c(-c3ccc(OCCC4CCN(C(=O)c5ccccc5)CC4)cc3)nc2c1 obs_value="3 µM"
compound=NC(=O)c1ccc2[nH]c(-c3ccc(OCCO)cc3)nc2c1 obs_value="> 400 µM"
compound=Cc1ccc(CN2CCC(CCOc3ccc(-c4nc5cc(C(N)=O)ccc5[nH]4)cc3)CC2)cc1 obs_value="84 µM"
compound=NC(=O)c1ccc2[nH]c(-c3ccc(OCCN4CCCCC4)cc3)nc2c1 obs_value="> 400 µM"
compound=NC(=O)c1ccc2[nH]c(-c3ccc(OCC4CCNCC4)cc3)nc2c1 obs_value="> 400 µM"
compound="COc1ccc(CN2CCCCC2CCOc2ccc(-c3nc4cc(C(N)=O)ccc4[nH]3)cc2)cc1 (centres undefined)" obs_value="> 400 µM"

// next item, solubility at 72 h requested
[ask] Return solubility at 72 h (reported value) for this compound: `NC(=O)c1ccc2[nH]c(-c3ccc(OCCC4CCN(Cc5ccc(Cl)c(Cl)c5)CC4)cc3)nc2c1`
[reply] 13 µM
